- assay notes: Stability in the stomach: hydrolysis rate at pH 2.0
- Type: physicochemical
- run parameters: incubation time 120 min; 1% solution, 10 mmol/L hydrochloric acid, pH 2.0, 37° C.
- Procedure: The stability of a substance in the gastric passage can be simulated by determining the hydrolysis rate at pH 2.0. Sucrose and 1-kestose are used as controls. In each case a 1% solution of the trisaccharides (DP 3) from Example 4 is incubated with 10 mmol/L hydrochloric acid, pH 2.0 at 37° C. for 3 h. Samples are taken from the reaction mixture after 60, 120 and 180 min and are analyzed by basic anion exchange chromatography, HPAEC.
Recorded Hydrolysis rate [%], one value per entry.

compound	measure unit	Hydrolysis rate [%]
OC[C@H]1O[C@@](CO)(O[C@H]2O[C@H](CO)[C@@H](O)[C@H](O)[C@H]2O)[C@@H](O)[C@@H]1O [Sucrose, reference compound]	%	5
OCC1O[C@@H](O[C@@H]2C(CO)O[C@H](OC[C@@H](O)[C@@H](O)[C@H](O)C(O)CO)C(O)C2O)C(O)C(O)[C@H]1O (mixture of isomers)	%	0
OCC1O[C@@H](OCC2O[C@H](OC[C@@H](O)[C@@H](O)[C@H](O)C(O)CO)C(O)C(O)[C@@H]2O)C(O)C(O)[C@H]1O (mixture of isomers)	%	0
OC[C@H]1O[C@@](CO)(OC[C@@]2(O[C@H]3O[C@H](CO)[C@@H](O)[C@H](O)[C@H]3O)O[C@H](CO)[C@@H](O)[C@@H]2O)[C@@H](O)[C@@H]1O [1-Kestose, reference compound]	%	25
OCC1O[C@H](OC[C@@H](O)[C@@H](O)[C@H](O)C(O)CO)C(O)C(O[C@@H]2OC(CO)[C@H](O)C(O)C2O)[C@@H]1O (mixture of isomers)	%	0
